experiment_summary: chemical genetic growth profiling, strain panel (AID 1159580);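 also: tested at 20 µM; growth read once vehicle control cultures reached saturation at 30 °C; 1 = growth at the plate median or of vehicle wells; lower values mean less growth of the strain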
cond: S. cerevisiae deletion strains, growth OD, locus YJL095W, strain BCK1
Among all 5,500 compounds or so, about 2,000 (36%) were called active. Roughly 18% stayed inconclusive and do not appear here. Rule as the data show it: active = normalized growth mostly below about 0.91 (no sharp cut-off); inconclusive = no clear call, values can overlap the other calls; inactive = mostly above about 0.92. Some of the results follow.
Give one outcome, nothing more. List: True for active, False for inactive

Task: What call does the record list for N#Cc1c(N)sc2c1CCc1ccccc1-2 ?
Output: False

Task: What call does the record list for CCC1(c2ccccc2)OC(c2cc(Cl)cc(Cl)c2O)Nc2ccccc21 (stereo not drawn) ?
Output: True

New cases:
Task: What call does the record list for CCOC(=O)C(NC(C)=O)(Nc1ccc(F)c(Cl)c1)C(F)(F)F (stereo not drawn) ?
Output: False

Task: What call does the record list for CCOC(=O)C(O)(c1ccc(NC(=O)Nc2ccc(Cl)cc2)cc1)C(F)(F)F (stereo not drawn) ?
Output: False

Task: What call does the record list for NNC(=O)COc1ccc(C2SCCS2)cc1 ?
Output: True

Task: What call does the record list for Cc1nc(C(F)(F)F)ccc1-c1nnc(SC(=O)c2ccc(Cl)cc2)o1 ?
Output: False

Task: What call does the record list for CC(C)(C)c1cc(C(=O)/C(C#N)=N\Nc2ccc(Cl)cc2)no1 ?
Output: True

Task: What call does the record list for Cc1nc(C(F)(F)F)ccc1C(=O)Sc1nnc(-c2ccc(C(F)(F)F)nc2C)o1 ?
Output: False

* * *

experiment_summary: chemical genetic growth profiling, strain panel (AID 1159580);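 also: tested at 20 µM; growth read once vehicle control cultures reached saturation at 30 °C; 1 = growth at the plate median or of vehicle wells; lower values mean less growth of the strain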
cond: S. cerevisiae deletion strains, growth OD, locus YDR159W, strain sac3, stronger effect = lower value
About 2,000 (36%) of roughly 5,500 compounds were called active. Another 18% or so got no clear call; they are omitted. The list shows a part of the results.
# reported normalized growth; entries follow
Answer using only a numeral; do not append any unit.

The cases that follow already have their normalized growth on record.
Task: Using the record for CC(C)=CCc1c(O)cc2occ(-c3ccc4c(c3)OCO4)c(=O)c2c1O , report its normalized growth.
Output: 0.888

Task: Using the record for CC(C(=O)O)c1ccc(N2Cc3ccccc3C2=O)cc1 (stereo unspecified) , report its normalized growth.
Output: 1.05

Task: Using the record for COc1ccc2c(=O)c(CC(=O)O)coc2c1 , report its normalized growth.
Output: 0.926

Task: Using the record for O=c1c(-c2ccc3c(c2)OCO3)coc2cc(O)ccc12 , report its normalized growth.
Output: 0.96

New cases:
Task: Using the record for COc1cc(OC)c2c(=O)c(-c3ccc4c(c3)OCO4)coc2c1 , report its normalized growth.
Output: 1.01

Task: Using the record for CC1=C2CCC3C(CC[C@]4(C)C(=O)CCC34)[C@@]2(C)CCC1=O (stereo partly specified) , report its normalized growth.
Output: 0.998

Task: Using the record for CN(C)c1nc(N(C)C)nc(N(C)C)n1 , report its normalized growth.
Output: 0.963

Task: Using the record for COC(=O)C[C@H]1C(C)(C)[C@@H](OC(C)=O)[C@@H]2CC3C4CC(=O)O[C@@H](c5ccoc5)[C@]4(C)CCC3[C@@]1(C)C2=O (stereo partly specified) , report its normalized growth.
Output: 1.03

Task: Using the record for CCNc1nc(Cl)nc(NC(C)C)n1 , report its normalized growth.
Output: 1.01

Task: Using the record for CC1(C)C=Cc2c(cc3occ(-c4ccc5c(c4)OCO5)c(=O)c3c2O)O1 , report its normalized growth.
Output: 1

Task: Using the record for COc1c2c(cc3occ(-c4ccc5c(c4)OCO5)c(=O)c13)OC(C)(C)C=C2 , report its normalized growth.
Output: 1.02
